Source listed as ChEMBL document CHEMBL1201862.

- study_system: Sentrin-specific protease 8 (Homo sapiens)
- Sequence (Q96LD8 whole entry): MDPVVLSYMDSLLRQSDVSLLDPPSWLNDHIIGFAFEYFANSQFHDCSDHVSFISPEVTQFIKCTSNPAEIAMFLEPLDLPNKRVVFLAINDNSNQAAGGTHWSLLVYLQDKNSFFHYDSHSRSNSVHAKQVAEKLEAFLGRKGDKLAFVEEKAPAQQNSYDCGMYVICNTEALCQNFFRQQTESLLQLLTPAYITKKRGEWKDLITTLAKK
- Assay type: functional
Calls of active or inactive are those of the source.
metric: IC50

Some solved entries appear below for comparison.
CN(CCO)c1cc(Sc2nc3ccccc3s2)c2nonc2c1[N+](=O)[O-] 28.1 µM (active)
CC(C)(C)c1ccc(C(=O)NNc2cc(N3CCCCC3)nc(N3CCCCC3)n2)cc1 0.796 µM (active)
CC(=O)NN1C(=O)c2ccc3c4c(ccc(c24)C1=O)C(=O)N(NC(C)=O)C3=O 0.0707 µM (active)

Below: the item to evaluate.
Suppose we examine the compound CCOc1ccc(C(c2c(C)n[nH]c2O)c2c(C)n[nH]c2O)cc1OC ; what IC50 value has been reported? 32.9 µM (active)
